Entries and their measured Ki follow.
- subject_of_test: UniProt P21554
- test_description: Human CB1 receptor binding, [3H] CP-55,940 displacement on HEK cell membranes
- Parameters: expressed in transfected cells; host or cells: HEK cells, doxycycline-induced; membrane preparation
- measurement_conditions: read-out: CB1 Ki
Report as a plain number; the unit nM is understood.

What value of Ki has been reported for the following compound? CC(C)(C)[C@H](NC(=O)c1nn(Cc2ccc(F)cc2)c2ccccc12)C(=O)NCc1nc2n(n1)CCC2 8.69

Others:
Please report the recorded Ki for CC(C)(C)[C@H](NC(=O)c1nn(Cc2ccc(F)cc2)c2ccccc12)C(=O)N[C@@H](CC(N)=O)C(N)=O . 46.8

Quick one: Ki for CC(C)(C)[C@H](NC(=O)c1nn(Cc2ccc(F)cc2)c2ccccc12)C(=O)NCCc1n[nH]c(=O)[nH]1 ? 1.3

For CC(C)(C)[C@H](NC(=O)c1nn(Cc2ccc(F)cc2)c2ccccc12)C(=O)N1CCC(C(N)=O)CC1 , what is its reported Ki? 6.3

---

- subject_of_test: UniProtKB P21554
- test_description: [35S] GTPγS binding on membranes of CHO cells expressing the human CB1 receptor (agonism)
- Type: biochemical
- Set-up: expressed in transfected cells; membrane preparation
- measurement_conditions: GTPγS EC50, human CB1, CHO cell membranes
recorded_metric: EC50 (nM)
Give the quantity in nM, number only.

Examples with answers:
Test system UniProtKB P21554; read-out EC50; what value for CC(C)(C)[C@H](NC(=O)c1nn(Cc2ccc(F)cc2)c2ccccc12)C(=O)NCC#N [Example 270] ? 2.62

Param readout = EC50; param system = UniProtKB P21554; param query = Cn1cc(CNC(=O)[C@@H](NC(=O)c2nn(Cc3ccc(F)cc3)c3ccccc23)C(C)(C)C)cn1 [Example 423] ; response: value 30.8

Please state recorded EC50 (tested on UniProtKB P21554) of CC(C)(C)[C@H](NC(=O)c1nn(Cc2ccc(C#N)cc2)c2cc(F)ccc12)C(=O)NCCO [Example 295] 64.3

Now examine the next entry.
Requested read-out EC50, target or system UniProtKB P21554, entry COc1cccc(CNC(=O)c2nn(Cc3ccccc3)c3ccccc23)c1 [Example 43] 101

---

- subject_of_test: human CB1 receptor (Homo sapiens, UniProt P21554)
- Sequence (P21554 whole entry): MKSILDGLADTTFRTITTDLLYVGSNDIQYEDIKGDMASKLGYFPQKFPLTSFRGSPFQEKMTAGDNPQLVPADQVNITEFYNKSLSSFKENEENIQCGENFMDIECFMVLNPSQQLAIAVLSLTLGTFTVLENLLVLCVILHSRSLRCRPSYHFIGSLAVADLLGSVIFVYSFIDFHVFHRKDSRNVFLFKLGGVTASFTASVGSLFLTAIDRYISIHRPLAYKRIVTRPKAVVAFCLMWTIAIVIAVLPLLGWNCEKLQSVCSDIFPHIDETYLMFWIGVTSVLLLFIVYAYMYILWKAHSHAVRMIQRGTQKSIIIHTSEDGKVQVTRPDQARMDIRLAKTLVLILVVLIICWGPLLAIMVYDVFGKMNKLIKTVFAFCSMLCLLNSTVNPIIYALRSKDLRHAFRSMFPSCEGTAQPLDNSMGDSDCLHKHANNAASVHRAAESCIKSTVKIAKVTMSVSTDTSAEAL
- test_description: [35S] GTPγS binding on membranes of CHO cells expressing the human CB1 receptor (agonism)
- Type: biochemical
- Design: expressed in transfected cells; membrane preparation
- measurement_conditions: GTPγS EC50, human CB1, CHO cell membranes
recorded_metric: pEC50
// pEC50: -log10(molar conc.)

// returns reported pEC50 for input CC(C)(C)[C@H](NC(=O)c1nn(Cc2ccc(F)cc2)c2ccccc12)C(=O)N1CCC(F)C1 (stereo partly shown) [Example 334] 8.03

Sample CC(C)(C)C(NC(=O)c1nn(Cc2ccc(F)cc2)c2c(F)cccc12)C(=O)NC1CC1 (stereo not shown) [Example 176] — what was its pEC50? 9.29

---
// query pEC50 value for entry CC(C)(C)C(NC(=O)c1nn(Cc2ccc(C#N)cc2F)c2ccccc12)C(=O)NCC(O)CO (stereo not shown) [Example 89] 6.27

Data request, read-out pEC50, for CC(C)(C)[C@H](NC(=O)c1nn(Cc2ccc(C#N)cc2)c2cc(F)ccc12)C(=O)NCC(F)(F)F [Example 310] 8.68

pEC50 for CC(C)(C)C(NC(=O)c1nn(Cc2ccc(F)cc2)c2c(Cl)cccc12)C(=O)NCCCO (stereo not shown) [Example 184] ? 8.40

# query: pEC50 of entry CC(C)(C)C(NC(=O)c1nn(Cc2ccc(F)cc2)c2ccccc12)C(=O)NCCO (stereo not shown) [Example 81] 9.01

Could you tell me which pEC50 is on file for Cc1cc(CNC(=O)[C@@H](NC(=O)c2nn(Cc3ccc(F)cc3)c3ccccc23)C(C)(C)C)no1 [Example 425] ? 8.47
